The origin of these recorded values is paper PMC4336329.

TARGET OR TEST SYSTEM: human ether-à-go-go-related gene (hERG) potassium channel (human, UniProt Q12809);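 note: peak tail current of the secondary pulse compared with the same well before compound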
Sequence (Q12809 whole entry, looked up): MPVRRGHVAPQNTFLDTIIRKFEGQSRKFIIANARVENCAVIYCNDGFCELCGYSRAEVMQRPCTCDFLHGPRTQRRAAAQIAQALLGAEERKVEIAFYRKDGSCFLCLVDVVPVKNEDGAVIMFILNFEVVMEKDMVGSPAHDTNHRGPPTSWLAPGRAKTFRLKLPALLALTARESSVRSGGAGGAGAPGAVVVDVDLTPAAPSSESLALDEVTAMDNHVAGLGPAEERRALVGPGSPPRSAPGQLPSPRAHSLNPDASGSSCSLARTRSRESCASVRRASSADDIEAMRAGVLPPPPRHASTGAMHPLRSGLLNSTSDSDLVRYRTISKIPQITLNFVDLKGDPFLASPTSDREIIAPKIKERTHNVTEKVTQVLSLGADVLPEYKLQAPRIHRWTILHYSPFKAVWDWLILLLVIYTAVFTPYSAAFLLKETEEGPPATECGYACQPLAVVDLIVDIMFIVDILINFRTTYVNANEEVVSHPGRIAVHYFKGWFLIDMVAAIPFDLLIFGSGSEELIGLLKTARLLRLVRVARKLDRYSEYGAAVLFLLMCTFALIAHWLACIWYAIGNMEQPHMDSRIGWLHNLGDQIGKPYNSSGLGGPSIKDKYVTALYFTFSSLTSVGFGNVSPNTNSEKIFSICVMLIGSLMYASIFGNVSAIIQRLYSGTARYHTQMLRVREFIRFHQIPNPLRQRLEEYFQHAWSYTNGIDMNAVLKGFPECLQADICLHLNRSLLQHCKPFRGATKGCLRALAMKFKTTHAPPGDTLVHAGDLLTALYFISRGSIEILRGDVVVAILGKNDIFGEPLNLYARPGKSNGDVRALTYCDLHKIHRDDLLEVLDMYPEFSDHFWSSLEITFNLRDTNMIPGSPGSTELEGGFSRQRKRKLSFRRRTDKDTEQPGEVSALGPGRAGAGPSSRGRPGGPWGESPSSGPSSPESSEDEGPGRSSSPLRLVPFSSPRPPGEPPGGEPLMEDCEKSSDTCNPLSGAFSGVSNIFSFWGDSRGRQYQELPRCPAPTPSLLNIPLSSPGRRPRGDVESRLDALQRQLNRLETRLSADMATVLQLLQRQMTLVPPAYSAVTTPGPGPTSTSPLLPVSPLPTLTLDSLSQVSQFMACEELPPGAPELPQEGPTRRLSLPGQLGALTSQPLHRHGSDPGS
PROTOCOL DESCRIPTION: primary screen, population patch clamp on CHO cells stably expressing hERG; higher = less effect of the substance
Out of some 310,000 compounds screened, about 14,000 (4.5%) showed an effect of 50% or more. Effects have a minus sign here. The sample holds strong results, similar compounds and a random draw of the others, so the mix is not that of the screen.
Decide using hERG current change (%, negative = inhibition) at 10uM: a value greater than or equal to -40% is 1 (yes), a smaller one is 0 (no).

Field: example entries. Status: answers known.
CCCCc1cc(=O)oc2cc(OCC(=O)N3CCc4ccccc43)ccc12	1 (yes)
COc1ccc(C(=O)OCCN2C(=O)c3ccccc3C2=O)cc1	1 (yes)
O=C(NC(=S)NCCCN1CCOCC1)c1ccc(Br)cc1	0 (no)

Is reported hERG current change (%, negative = inhibition) at 10uM greater than or equal to -40% here: NC(=O)NCCN1CCN(c2ncc(C(F)(F)F)cc2Cl)CC1
1 (yes)

Is reported hERG current change (%, negative = inhibition) at 10uM greater than or equal to -40% here: Fc1ccccc1-c1nnc2c3ccccc3nc(N3CCOCC3)n12
1 (yes)

Is reported hERG current change (%, negative = inhibition) at 10uM greater than or equal to -40% here: COc1ccc(NC(=O)N2CCCC2)cc1OC
1 (yes)
